Recorded values, source the nanobody polyreactivity screen of Harvey et al. (2022).

# assay.protocol: yeast display, Sf9 membrane polyspecificity reagent, FACS + sequencing; frameworks hold sequencing errors
metric: polyreactivity (PSR sort gate)

# count of solved cases: 4
QVQLVEAGGGLVQAGGSLRLSCADCVSTGVNTMGWYRQAPGKERELVDAIRATGGSTYYADSVKGRFTISRDNAKNTVYLQMNSLKPEDTAVYYCAAKWFRLYLRQDRYYYWGQGTQVTVSS = high polyreactivity
QVQLVESGGGLVQAGGSLRLSWAASGFTFSVYAMGWYRQAPGKERELVAAISSGGSTNYADSVKGRFTISRDNAKITVYFQMNSLKPEDTAVYYCADSITVGYSNYYYWGQGSQVTVSS = high polyreactivity
QVQHVESGGGLVQAGGSLRLSCAASGSIFGDNAMGWYRQAPGKERELVAAISSGGPTYADSVKGRFTISRDNAKNTVYLQMNSLKPEDTAVYYCNATDGITPYDLTDIEFDYWGQGTQVTVSS = low polyreactivity
QVQLVESGGGLVQAGGSLRLRCAASGRIFNNYAMGWYRPAPGKERELVAAISGSGGSTYYADSVKGRFTISRDNAKNNVYLQMNSLKPEDTAVYYCSTSGPHYFSRNFDYWGQGTQVTVSS = low polyreactivity

// below: polyreactivity (PSR sort gate) requested for another sequence
QVQLEESGGGLVQAGGSLRLSCAASGNIFESYGMGWYRQAPGKERELVATINTSSGSTYYADSVKGRFTISRDNAKNTVYLQMNSLKPEDTAVYYCAAEWYPYPWGYGYWGQGTQVTVSS has a reported polyreactivity (PSR sort gate) of low polyreactivity

###

# assay.protocol: yeast display, Sf9 membrane polyspecificity reagent, FACS + sequencing; frameworks hold sequencing errors
metric: polyreactivity (PSR sort gate)

# count of solved cases: 5
QVDLVESGGGLVQAGGSLRLSCAASGRTFQFNGMGWYRQAPVKERELVAGITSGGSTYYADSVKGRFTISRDNAKTTVYLQMISLKPEDTAVYYCAKDDPYFRGSPYFGRYPYGYWGQGTEVTVSS = high polyreactivity
QVQLVESGGGLVQAGGSLRLSCAASGIIFRWYTMGWYRQAPGKERELVAAISTSTGSTYYADSVKGRFTISRDNAKNTVYLQMNSLKPEDTAVYYCAADYAYWNYESYYWGQGTQVTVSS = high polyreactivity
QVQLVETCGGIVQAGGSLRLSCAASGITFALYAMGWYRESPGKERELVAAISYSGGRSYYADSVKGRFTISRDHAQNTVNLQMNSLKPEDTAVYYCAAGGSGSGPYGYGYWGQGTKVTVSS = high polyreactivity
QVQLVESGGGLVQAGGSLRLSCAASGSTFLGYTMGWYRQAPGKERELVAAISRRGSSTYYADSVKGRFTISRDNAKNTVYLQMNSLKPEDTAVYYCAAYATSFRDGYWGQGTQVTVSS = high polyreactivity
QVQLVESGGGLVQAGGSLRLSCAASGRIFKDYAMGLYRQAPGKERELVAGIDYRGGSTYYADSVKGRFTISRDNAKNTVYLQMNSLKPEDNAVYYCAADSLISIYDYWGQGTQVTVSS = low polyreactivity

QVQLVESGGGLVQAGGSLRLSCAASGFIFDDNAMGWYRQAPGKERELVAAITSGGGSTYYADSVKGRFTISRDNAKNTVYLQMNSLIPEDTAVYYCNAVPSQHDEFDYWGQGTHVTVSS has a reported polyreactivity (PSR sort gate) of low polyreactivity

QVQLVESGGGLVQAGGSLRLSCTASGGIFRYYAMGWYRPAPGKERELVAGISRSGGSTHYADSVKGRFTISRDNAKNTVYLQMNSLKREDTAVYYCAADTYFTKYDYWGQGTQVTVSS has a reported polyreactivity (PSR sort gate) of high polyreactivity

QVQLVESGGGLVQAGGTLRLSCAASGSTFSYNAMGWYRQAPGKERELVAAISGSGGRTYYADSVKGRFTISRDNAKNTVYLQMNSLKPEDTAVYYCAARVGAGWSPKYDYWGQGTQVTVSS has a reported polyreactivity (PSR sort gate) of high polyreactivity

QVQLVESGGGLVQAGGSLRLSCAASGSILVYNAMGWYRQAPGKERELVDAISNTGRTYYADSVKGRFTISRDNAKNTVYLQMNSLKPEDTAVYYCADRFYRVLHRFGYWGQGTQVTVSS has a reported polyreactivity (PSR sort gate) of high polyreactivity

QVQLVESGGGLVQAGGSLRLSCAASGRIFKRYAMGWYRQAHGKERELVASITWSGGSTYYADSVKGRFTISRDNAKNTVYLQMNSLKPEDTEVYYCAARRTATTSRAYYYWGQGTQVTVSS has a reported polyreactivity (PSR sort gate) of high polyreactivity

QVQLVESGGGLVQAGGSLRLSCAASGSIFGYYAMGWYRPATGKEREFVAAITSSGGSTYYADSVKGRFTISRDNAKNTVYLQMNSLKPEDTAVYYCNAGAWQLYWYRYEYWGQGTQVTVSS has a reported polyreactivity (PSR sort gate) of high polyreactivity

###

# assay.protocol: yeast display, Sf9 membrane polyspecificity reagent, FACS + sequencing; frameworks hold sequencing errors
metric: polyreactivity (PSR sort gate)

# count of solved cases: 6
QVQLVESGGGIVQAGGSLRLSCAASGRIFDNYVLGWYRQAPGKERELVAAISSGGGTYYADSVKGRFTISRDNAKNTVYLQMNSLKPEDTAVYYCAKRRVYDRSFGRYDYWGQGTQVTVSS = low polyreactivity
QVQLVESGGGLVQAGGSLSLSCAASGRTIIRNAMGWYRQAPGKERELVAAINSGGITNYADSVKGRFTISRDNAKNTVYLKMNSLKPEDTAVYYCNARGSYPPYRSYGYWGQGTQVTVSS = low polyreactivity
QVQLVESGGGLVQAGGSLRLSCAASGRIFQFNFMGWYRQAPGKERELVAAISGSGGSTYADSVKGRFTISRDNAKNTVYLQMNSLKPEDTAVYYCATEYVVYRPRGRLQKFDYWGQGTQVTVSS = low polyreactivity
QVQLVESGGGLVQAGGSLRLSCAASGYTFRVYTMGWYRQAPGKERELVAAISRRGSRTYYADSVKGRFTISRDNAKNSVYLQMNSLKPEDTAVYYCAAGIPYPDDYWGQGTQVTVSS = high polyreactivity
QVQLQESGGGLVQAGGSLRLSCAASGYIFPRIYMGWYRQAPGKEREFDAGISYDAITNYADSVKGRFTISLDNAKNTVYLQMNSLNPEYTAVYYCAVSYYGTPLVTYWGQGTQVTVSS = high polyreactivity
QVQLVESGGGLVQAGGSLRLSCAASGSTFPSYAMGWYRQAPGKERELVAAINSGGGTNYADSVKGRFTISRDNAKNTVYLQMNSLKPEDTAVYYCAKSRYDYTKTEGGYWGQGSQVTVSS = low polyreactivity

QVQHVESGGGLVQAGGSLRLSCAASGTIFLYNAMGWYRQAPGKERELVAAIRGSDGITFYADSVKGRFTISRDNAKNTVYLQMNSLKPEDTAVYYCAKDTYRSPRHDYGYWGQGTQVTVSS has a reported polyreactivity (PSR sort gate) of low polyreactivity

QVQLVESAGGLVQAGGSLRLSCAASGRIFGRYAMGWYRQAPGKERELVAAITSGTSTYYADSVKGRFTISRDNAKNTVYLQMNSLKPEDTAVYYCNADYPYYPYRENYWGQGTQVTVSS has a reported polyreactivity (PSR sort gate) of low polyreactivity

###

# assay.protocol: yeast display, Sf9 membrane polyspecificity reagent, FACS + sequencing; frameworks hold sequencing errors
metric: polyreactivity (PSR sort gate)

QVQLVESGGGLVQAGGSLRLSCAASGITFAYNAMGSYRQAPGKERELVARITSGGRTYYADSVKGRFTISRDNAKNTVYLQMNSLKPEDTAVYYCNAKEGSRYRKYDYWGQGTQVTVSS = low polyreactivity
QVQLVESGGGLVQAGGSLRLSCAASGSTFKYYGMGWYRQAPGKERELVAAITSGGSTYDADSVKGRFTISRDNAKTTVYLQRNSLKPEDTAVYYCNTQYYLYYPADYDYWGQGTQVTVSS = low polyreactivity
QVQLVESGGGLVQAGGSLRLSCAASGFTFAKYAMGWYRQAPGKERELVAAISSSGGRTYYADSVQGRFTISRDNAKNTVYLQMNSLKPEDTAVYYCAADFSGPFDYWGQGTQVTVSS = high polyreactivity
QVQLVESGGLLVQAGGSLRLSCAASGRISPKNAMGWYRQAPGKERELVATIRKIGGRTYYADSVKGRFTISRDNAKNTVYLQMNSLKTEDTAVYYCATDFAPSYYPDRFDYWGQGTQVTVSS = low polyreactivity
QVQLVESGGGLVQAGGSLRLSCAASGITFYRNAMGWYRQAPGKERELVATITRGGSTYYADSVKGRFTISRDNAKNTVYLQMNSLKPEDTAVYYCNRAGGYRTTFYSWGQGTQVTVSS = high polyreactivity

QVQLVESGGGLVQAGGSLRLSCAASGSIFYRYAMGWYRQAPGKESELVAAITQSTDSTYYADSVKGRFTISRDNAKNTVYLQMNSLKPEDTAVYYCAAYLVYYRPYAYGYWGQGTQVTVSS has a reported polyreactivity (PSR sort gate) of low polyreactivity

QVQLVESGGGLVQAGGSLRLSCAASGFTLYFYAMGWYRQAPGKERELVATITGSGGSTTYADSVKGRFTISRDNAKNTVYLQMNRLKPEDTAVSYCAAVRVVRASRYQTYHWQPGYCYWGQGTQVTVSS has a reported polyreactivity (PSR sort gate) of high polyreactivity

QVQLVESGAGLVQAGGSLRLSCAPSGSILVNPIGWYRQAPGKEREFVAAISSGGSTKYADSVKGRFTISRDNAKNTVYLQMNSLKPEATAVYYCNARRRGAGGYDYWGQVTQVTVSS has a reported polyreactivity (PSR sort gate) of high polyreactivity

QVQIVESGGGLVQAGGSLRLSCAASGIIFDYYAMGWYIQAPGKERELVATITSGGSTNYADSVKGRFTISRDNAKNTVYLQMNSLKPEDSAVYYCAARTYWFPDIYPGLGMDYWGHGTQVTVSS has a reported polyreactivity (PSR sort gate) of low polyreactivity

QVQLVESGGGLVQAGGSLRLSCAASGSTFGFYAMGWYRQAPGKEREFVAAITWSGGRTNYADSVKGRFTISRDNAKNTVYLQMNSLKPEDTAVYYCAAEGFVTWYRQGQVYYWGQGTQVTVSS has a reported polyreactivity (PSR sort gate) of high polyreactivity

QVQLVESGGGLVQAGGSLRLSCAASGLILYYYDMGWYRQAPGKERELVAAISWNGDDTYYADSVKGRFTISRDNAKNTVYLQMNSLKPEDTAVYYCAAEGPPQTDDYWGQGTQVTVSS has a reported polyreactivity (PSR sort gate) of high polyreactivity
